Assayed target: Melanocyte-stimulating hormone receptor (Homo sapiens, UniProt Q01726)
Sequence (Q01726 whole entry): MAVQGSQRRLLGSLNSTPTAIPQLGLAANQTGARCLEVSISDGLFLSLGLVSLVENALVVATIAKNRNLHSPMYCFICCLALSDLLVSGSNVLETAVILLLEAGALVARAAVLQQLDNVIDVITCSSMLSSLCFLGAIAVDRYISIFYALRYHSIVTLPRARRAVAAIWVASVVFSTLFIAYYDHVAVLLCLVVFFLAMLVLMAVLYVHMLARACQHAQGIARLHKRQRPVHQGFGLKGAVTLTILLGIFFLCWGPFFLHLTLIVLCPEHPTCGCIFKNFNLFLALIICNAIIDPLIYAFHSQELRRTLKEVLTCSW
Assay procedure: Displacement of [125I]-NAD-alpha-MSH from human recombinant MC1 receptor expressed in BHK570 cells after 90 mins in presence of ovalbumin
Readout name: Ki (µM)
The reply should be a number in µM, with the unit left off.

Query: So what does the record say about Ki for `CCCC[C@H](NC(=O)[C@H](CO)NC(=O)[C@H](Cc1cnc[nH]1)NC(=O)[C@H](CCC(N)=O)NC(=O)[C@H](CO)NC(=O)CNC(=O)COCCOCCNC(=O)CCCCCCCCCCCCCCCc1nnn[nH]1)C(=O)N[C@H]1CCC(=O)NCCCC[C@@H](C(N)=O)NC(=O)[C@H](Cc2c[nH]c3ccccc23)NC(=O)[C@H](CCCNC(=N)N)NC(=O)[C@@H](Cc2ccccc2)NC(=O)[C@@H]2C[C@@H](O)CN2C1=O` ?
Response: 1.2

Query: Please give the result for `CCCC[C@H](NC(=O)[C@H](CN)NC(=O)[C@H](Cc1cnc[nH]1)NC(=O)[C@H](CCC(N)=O)NC(=O)[C@H](CO)NC(=O)CNC(=O)COCCOCCNC(=O)CCCCCCCCCCCCCCCc1nnn[nH]1)C(=O)N[C@H]1CCC(=O)NCCCC[C@@H](C(N)=O)NC(=O)[C@H](Cc2c[nH]c3ccccc23)NC(=O)[C@H](CCCN=C(N)N)NC(=O)[C@@H](Cc2ccccc2)NC(=O)[C@@H]2C[C@@H](O)CN2C1=O` too.
Response: 0.4

Query: Please give the result for `CCCCCCCCCCCCCCCC(=O)NCC(=O)NCC(=O)NCC(=O)NCC(=O)NCC(=O)N[C@@H](CCCC)C(=O)N[C@H]1CCC(=O)NCCCC[C@@H](C(N)=O)NC(=O)[C@H](Cc2c[nH]c3ccccc23)NC(=O)[C@H](CCCNC(=N)N)NC(=O)[C@@H](Cc2ccccc2)NC(=O)[C@@H]2C[C@@H](O)CN2C1=O` too.
Response: 0.13
